# System: MDA-MB-468 breast
# test_protocol: NCI-60 one-dose screen, 48 h (100 = growth as untreated, 0 = no growth, -100 = all killed)
# condition_details: 10 µM unless noted
About 83,000 compounds went through this panel and 20% of them were active in at least one assay; those are over-represented in the sample as a whole. Activity calls are given as the source filed them. How the source made its calls: active means growth percent below 10; inactive means the rest.
As shown below, each of these molecules has a reported growth value.
readout_label: growth

{"molecule": "CCS(=O)(=O)N[C@@H]1O[C@H](COC(C)=O)C(OC(C)=O)[C@H](OC(C)=O)C1OC(C)=O (some centres not stated)", "readout_label": "growth", "result": "100% (inactive)"}
{"molecule": "Cc1cccc(C[C@H](NC(=O)Nc2ccc(C)cc2F)C(=O)N[C@@H]2C(=O)N3C[C@H](O)C[C@H]3C(=O)N3CCN(C)C[C@H]3C(=O)N[C@@H](C)C(=O)N3C[C@H](C)C[C@H]3C(=O)O[C@H]2C)c1", "readout_label": "growth", "result": "6.46% (active)"}
{"molecule": "Cc1ccc(C2CC(c3ccc(Nc4nc(NCCO)nc(Nc5ccc(Cl)cc5)n4)cc3)=Nc3c(N)nc(N)nc3N2)cc1 (configuration not stated)", "readout_label": "growth", "result": "-80% (active)"}
{"molecule": "Cc1ccc(N=NC2C(=O)N(c3ccc(Cl)cc3)N(c3ccc(Cl)cc3)C2=O)cc1", "readout_label": "growth", "result": "107% (inactive)"}
{"molecule": "CN1CCc2cccc3c2C1Cc1ccc(O)c(O)c1-3 (configuration not stated)", "readout_label": "growth", "result": "0.652% (active)"}
{"molecule": "CC(C)Cc1ccc([C@H](C)C(=O)O)cc1", "readout_label": "growth", "result": "113% (inactive)"}
{"molecule": "COC1=CC(=O)OC(c2ccc(OC)cc2)C1 (configuration not stated)", "readout_label": "growth", "result": "112% (inactive)"}
{"molecule": "CC(C)n1cnc2c(Nc3cccc(Cl)c3)nc(N[C@H]3CCCC[C@@H]3N)nc21", "readout_label": "growth", "result": "20% (inactive)"}
{"molecule": "C=CCn1cc(-c2nc3ccccc3s2)c2cc(-c3ccc4c5c(cccc35)C(=O)N(N)C4=O)ccc21", "readout_label": "growth", "result": "95.4% (inactive)"}
{"molecule": "O=c1oc2ccccc2cc1C1=NN=C(SCc2ccccc2)SC1", "readout_label": "growth", "result": "118% (inactive)"}
{"molecule": "CCOc1cc(N)ccc1C(=O)NCCCN(CC)CC", "readout_label": "growth", "result": "85% (inactive)"}
{"molecule": "COc1ccccc1S(=O)Nc1ccccc1 (configuration not stated)", "readout_label": "growth", "result": "97.2% (inactive)"}
{"molecule": "COc1cccc(NC2=CC(=O)C(C)=C(C)C2=O)c1", "readout_label": "growth", "result": "25.8% (inactive)"}
{"molecule": "N#Cc1nc(-c2ccccc2)oc1N1CCC(C2(C(F)(F)F)N=N2)CC1", "readout_label": "growth", "result": "112% (inactive)"}
{"molecule": "COc1cc2c(=O)n(CCCn3ccnc3)c3c4cc5c(cc4ccc3c2cc1OC)OCO5", "readout_label": "growth", "result": "-37.3% (active)"}
{"molecule": "BrC1=C(Br)C(Br)(Br)C(Br)=C1Br", "readout_label": "growth", "result": "97.7% (inactive)"}
{"molecule": "O=c1oc2ccc(F)cc2c(=O)n1-c1ccc(F)cc1F", "readout_label": "growth", "result": "-4.2% (active)"}

---

# Test system: HOP-92 NSCLC
# test_protocol: NCI-60 one-dose screen, 48 h
# condition_details: 10 µM
Compounds without any hit were thinned out: in the full panel of roughly 83,000, 20% have a hit. Calls of active or inactive are those of the source. Rule for the calls: active = growth percent below 10; inactive = the rest.
Outcome codes: y (active), n (inactive)

{"molecule": "CC1(C)CC[C@]2(C(=O)O)CC[C@]3(C)C(=CCC4[C@@]5(C)C[C@@H](O)[C@@H]6OC(c7cccc(F)c7)OC[C@@]6(C)C5CC[C@]43C)C2C1 (some centres undefined)", "discrete_label": "n"}
{"molecule": "Fc1ccc(/C=C/c2nc3ccccc3n3c(-c4ccc(Cl)cc4)nnc23)cc1", "discrete_label": "n"}
{"molecule": "Cc1ccc(-c2nc(C#N)c(S(=O)(=O)N3CCN(S(C)(=O)=O)CC3)o2)cc1", "discrete_label": "n"}
{"molecule": "COc1ccc(C2OC[C@@]3(C)C4CC[C@]5(C)C(CC=C6C7CC(C)(C)CC[C@]7(C(=O)O)CC[C@]65C)[C@@]4(C)C[C@@H](O)[C@@H]3O2)cc1 (some centres undefined)", "discrete_label": "n"}
{"molecule": "Cn1cc(-c2cc3nc(-c4c[nH]c5ccccc45)cc(N)n3n2)c2cc(Cl)ccc21", "discrete_label": "y"}
{"molecule": "CCOC(=O)C1=C(N)N(c2ccc(C)cc2)C2=C(C(=O)CC(C)(C)C2)C1c1ccccc1Br (centres undefined)", "discrete_label": "n"}
{"molecule": "COc1cc2oc(-c3cccc(C(=O)Nc4ccc(Cl)cc4)c3)cc(=O)c2c(OCCNC(=O)[C@@H](N)CO)c1OC", "discrete_label": "y"}
{"molecule": "C#C[C@]1(O)CC[C@H]2[C@@H]3CC=C4c5sc(Nc6ccc(C(F)(F)F)cn6)nc5CC[C@]4(C)[C@H]3CC[C@@]21C", "discrete_label": "y"}
{"molecule": "COc1cc(C2CC(c3ccccc3)=Nc3c(N)nc(N)nc3N2)ccc1Oc1nc(NCCO)nc(N2CCOCC2)n1 (centres undefined)", "discrete_label": "n"}

---

# Tested on: MDA-MB-468 breast
# test_protocol: NCI-60 one-dose screen, 48 h
# condition_details: 10 µM unless noted
# Experimental: Growth inhibition of the MDA-MB-468 human Breast tumor cell line is measured as a screen for anti-cancer activity. Cells are grown in 96 well plates and exposed to the test compound for 48 hours. Compounds are tested at a single concentration, which is 10^-5 M for most compounds. The reported endpoint is percent growth (GI% or GIPRCNT), where numbers from 0 - 100% represent growth inhibition, and numbers from -100% - 0 represent cell death. […]
This is part of a sample that, as a whole, favours compounds with a hit. Of some 83,000 tested, about 20% had one in any assay. Activity calls are given as the source filed them. Rule for the calls: active = growth percent below 10; inactive = the rest.
Outcome codes: yes (1) (active), no (0) (inactive)

{"compound": "Cc1cn(-c2nc3c(c(NCc4ccccc4)n2)COCC3)c2cccc(C(N)=O)c12", "discrete_label": "no (0)"}
{"compound": "O=S(=O)(CCN1CCOCC1)Nc1cncc(-c2ccc3ncnc(Nc4ccc(F)c(Cl)c4)c3c2)c1", "discrete_label": "yes (1)"}
{"compound": "CCCCN=C(N)c1ccc(OCCSCCOc2ccc(C(N)=NCCCC)cc2)cc1", "discrete_label": "no (0)"}
{"compound": "CCC(C)N(CCNc1cc(OC)cc2cccnc12)CCC(C)C (configuration not stated)", "discrete_label": "yes (1)"}
{"compound": "C#CCC1(c2ccc(F)c(F)c2)NS(=O)(=O)c2ccccc21 (configuration not stated)", "discrete_label": "no (0)"}
{"compound": "CCNC(=O)Oc1ccc(/C(=C(/C)Cc2ccc(OC)cc2)c2ccc(OCCN3CCCC3)cc2)cc1", "discrete_label": "no (0)"}
{"compound": "Cc1nc2n[nH]c(N)c2nc1C", "discrete_label": "no (0)"}
{"compound": "C#CCOc1cccc(-c2nc(N)nc(Nc3ccccc3SSc3ccccc3Nc3nc(N)nc(-c4cccc(OCC#C)c4)n3)n2)c1", "discrete_label": "no (0)"}
{"compound": "COc1ccc2c(c1)sc1nc(-c3ccccc3)c(-c3cccnc3)n12", "discrete_label": "no (0)"}
{"compound": "O=C(CCN1CCCC1)c1ccc([N+](=O)[O-])cc1", "discrete_label": "no (0)"}
{"compound": "CCOC(=O)C(CCC1=NC(C)(C)CC(C)O1)C(=O)OCC (configuration not stated)", "discrete_label": "no (0)"}
{"compound": "COc1ccc(-n2nnc(C(=O)NCCc3c[nH]c4ccc(F)cc34)c2C)cc1", "discrete_label": "no (0)"}
{"compound": "CCC(C)(C)c1ccc(OCCCCCCN2CCNCC2)cc1", "discrete_label": "yes (1)"}
{"compound": "Cc1cc(CSc2ccccc2C(=O)N2CC=C(c3ccccc3)CC2)on1", "discrete_label": "no (0)"}
{"compound": "COc1ccc(CSc2nc3cc(OC)c(OC)cc3c(=O)n2-c2ccc(Cl)cc2)cc1", "discrete_label": "no (0)"}
{"compound": "COc1ccc2c(c1)-c1c(c3cc(OC)ccc3n(CCN(C)C)c1=O)C2=O", "discrete_label": "no (0)"}
{"compound": "COc1ccc(-c2c3c(N)c4c(nc3nc3c2c(C)nn3-c2ccccc2)CCCCC4)cc1", "discrete_label": "no (0)"}
{"compound": "CCOC(=O)C1=C(Nc2ccc(Br)cc2)C(=O)N(CC)C1", "discrete_label": "no (0)"}
{"compound": "CN(C)[C@@H]1C(=O)C(C(=O)NCc2nc3[nH]cnc(=S)c3[nH]2)=C(O)[C@@]2(O)C(=O)C3=C(O)c4c(O)cccc4[C@@](C)(O)[C@H]3C[C@@H]12", "discrete_label": "no (0)"}
{"compound": "CCC1=C(c2ccc(OC)cc2)C(C)Oc2cc(OC(C)=O)ccc21 (configuration not stated)", "discrete_label": "yes (1)"}
{"compound": "Cc1ccc(-c2nc(/C=N/Nc3cc(C)nc4ccc(Br)cc34)c(C)o2)cc1", "discrete_label": "yes (1)"}
{"compound": "Ic1ccc(SSc2ccc(I)cc2)cc1", "discrete_label": "no (0)"}
